assay: Solubility and dissolution rate of amitriptyline hydrochloride in artificial gastric and intestinal fluid; format: physicochemical; settings: artificial gastric fluid, pH 6, simulated gastric fluid
Structures can show the parent of a compound that is named as a salt.
reported_metric: solubility

## Input Param item = CN(C)CCC=C1c2ccccc2CCc2ccccc21 [amitriptyline hydrochloride] ; retrieve measured solubility.
## Output > 600 mg/mL
